tested on: Corynebacterium glutamicum ATCC 13032
measurement type: MIC (µM)
Give bare numbers, in µM.

| sample smiles | assayed system | unit | MIC |
| --- | --- | --- | --- |
| CC(C)[C@H](NC(=O)[C@H](CCCCN)NC(=O)[C@H](C)NC(=O)[C@@H](NC(=O)[C@@H](NC(=O)[C@H](CCCN=C(N)N)NC(=O)[C@H](CCCN=C(N)N)NC(=O)[C@H](Cc1c[nH]c2ccccc12)NC(=O)[C@H](Cc1c[nH]c2ccccc12)NC(=O)CN)[C@@H](C)O)C(C)C)C(=O)N[C@@H](C)C(=O)N[C@@H](CCCCN)C(N)=O | Corynebacterium glutamicum ATCC 13032 | µM | 1.6 |
| CC(C)[C@H](NC(=O)[C@H](CCCCN)NC(=O)[C@H](C)NC(=O)[C@@H](NC(=O)[C@@H](NC(=O)[C@H](CCCN=C(N)N)NC(=O)[C@H](CCCN=C(N)N)NC(=O)[C@H](Cc1c[nH]c2ccccc12)NC(=O)[C@H](Cc1c[nH]c2ccccc12)NC(=O)CN)[C@@H](C)O)C(C)C)C(=O)N[C@@H](CCCN=C(N)N)C(=O)N[C@@H](CC(N)=O)C(N)=O | Corynebacterium glutamicum ATCC 13032 | µM | 1.6 |

Answer for every listed entry: what is its MIC? The entries follow.
1. CC[C@H](C)[C@H](NC(=O)[C@@H]1CCCN1C(=O)[C@H](CCCCN)NC(=O)[C@@H]1CCCN1C(=O)[C@H](CCCN=C(N)N)NC(=O)CNC(=O)[C@@H]1CCCN1C(=O)[C@H](Cc1ccccc1)NC(=O)[C@@H]1CCCN1C(=O)[C@H](CCCN=C(N)N)NC(=O)[C@@H]1CCCN1C(=O)[C@H](CCCN=C(N)N)NC(=O)CNC(=O)[C@@H]1CCCN1C(=O)[C@@H](N)CO)C(=O)N[C@@H](Cc1ccccc1)C(=O)N[C@@H](CCCN=C(N)N)C(=O)N1CCC[C@H]1C(=O)N[C@@H](CCCN=C(N)N)C(=O)O
2. C[C@H](NC(=O)[C@H](CCCCN)NC(=O)[C@H](Cc1c[nH]c2ccccc12)NC(=O)CNC(=O)[C@H](Cc1c[nH]c2ccccc12)NC(=O)[C@H](Cc1c[nH]c2ccccc12)NC(=O)[C@H](CCCCN)NC(=O)[C@H](CCCCN)NC(=O)CN)C(=O)N[C@@H](CCCCN)C(N)=O

1. 6.3
2. 1.57
